Molecular target: RSV postfusion F (postF, F deltaFP) (Respiratory syncytial virus)
Test: BLI, IgG on sensor, 100 nM antigen
OUTCOME MEASURE: Kd (nM)
Give just the numeric value; nM need not be written.

Past entries and their recorded results:
ADI-41247 (antibody, V domains shown) VH: QVQLVQSGAEVKKPGASLQVSCKASGYTFTDSYFHWVRQAPGQGLEWMGRISPHSGGTNYAQKFQGRVTMTRDTSISTAYLELSRLRSDDTAVYYCATEGPRGPFRFDPWGQGTLVTVSS VL: NFMLTQPHSVSESPGKTVTISCTRSSGSIASNYVQWYQQRPGSSPTTVIYEDNQRPSGVPDRFSGSIDSSSNSASLTISGLMTEDEADYYCQSYDSSNWVFGGGTKLTVL | 1.02
ADI-41347 (antibody, V domains shown) VH: EVQLVESGPGLVKPSGTLSLTCAVSGGSVSSDNWWSWVRQPPGKGIEWIGEIYPSGGTNYNPSLNSRVTISVDKSKNQFSLKLNSVTAADTAIYYCARAPFDSSGYHSNSVWGQGTLVTVSS VL: ETTLTQSPLSLPVTPGEPASISCRSSQSLLHSNGHNYLDWYVQKPGQSPQLLIYLSSNRASGVPDRFSGSGSGTDFTLRISRVEAEDVGVYYCMQPLQTPQTFGQGTKVEIK | 0.521

Moving on to the next binder.
Short answer for ADI-41243 (antibody, V domains shown) VH: QVQLVQSRAEVKKPGESLKISCKGSLHSFSNNWIGWVRQMPGKGLEWMGIIFPDDSDTRYSPSFQGQVTISADKSISTAYLQWSSLKASDTAIYYCGTVVTLIQGVADWGQGTLVTVSS VL: QPVLTQPHSVSESPGKTVTISCTRSSGSIDSSYVQWYQQRPGSSPTTVIYEDNLRPSGVPDRFSGSIDSSSNSASLTISGLKTEDEAEYYCQSYDSSNPVVFGGGTKLTVL : Kd was 0.418
